meta.source: patent US6756387B2

Target or system: delta receptors, mouse brain membranes (Mus musculus)
Construct: from tissue; host or cells: mouse brain homogenate
Sequence (P32300 whole entry): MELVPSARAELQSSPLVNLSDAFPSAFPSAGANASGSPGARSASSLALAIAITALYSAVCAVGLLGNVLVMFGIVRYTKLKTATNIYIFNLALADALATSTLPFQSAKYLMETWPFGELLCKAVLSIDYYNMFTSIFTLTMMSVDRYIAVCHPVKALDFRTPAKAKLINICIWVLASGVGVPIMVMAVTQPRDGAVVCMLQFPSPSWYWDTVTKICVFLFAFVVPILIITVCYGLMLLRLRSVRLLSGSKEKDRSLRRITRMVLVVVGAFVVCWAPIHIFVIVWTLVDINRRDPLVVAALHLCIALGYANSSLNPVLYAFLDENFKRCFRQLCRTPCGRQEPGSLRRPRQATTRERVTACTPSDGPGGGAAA
Test summary: GTP[γ]35S binding functional assay, homogenised mouse brain
Assay type: biochemical
Measurement context: mouse brain homogenate, read-out: MOUSE BRAIN % E Max
Procedure: B. Mouse and rat brains were weighed and rinsed in ice-cold PBS (containing 2.5 mM EDTA, pH 7.4). […] The agonist activity of the compounds is measured by determining the degree to which the compounds receptor complex activates the binding of GTP to G-proteins to which the receptors are coupled. […] The EC50 and Emax values of compounds are determined from dose-response curves. […]
Endpoint label: Emax (%)

{"columns": ["Structure smiles string", "Target or system", "Unit annotation", "Test result"],
 "data": [
  ["CCN(CC)C(=O)c1ccc(C(=C2CCN(Cc3ccco3)CC2)c2cccc(O)c2)cc1", "delta receptors, mouse brain membranes (Mus musculus)", "%", 134],
  ["CCN(CC)C(=O)c1ccc(C(=C2CCN(Cc3ccccc3)CC2)c2cccc(O)c2)cc1", "delta receptors, mouse brain membranes (Mus musculus)", "%", 104],
  ["CCN(CC)C(=O)c1ccc(C(=C2CCN(Cc3ncc[nH]3)CC2)c2cccc(O)c2)cc1", "delta receptors, mouse brain membranes (Mus musculus)", "%", 136],
  ["CCN(CC)C(=O)c1ccc(C(=C2CCN(Cc3nccs3)CC2)c2cccc(O)c2)cc1", "delta receptors, mouse brain membranes (Mus musculus)", "%", 118],
  ["CCN(CC)C(=O)c1ccc(C(=C2CCN(Cc3ccncc3)CC2)c2cccc(O)c2)cc1", "delta receptors, mouse brain membranes (Mus musculus)", "%", 78.2],
  ["CCN(CC)C(=O)c1ccc(C(=C2CCN(Cc3cccs3)CC2)c2cccc(O)c2)cc1", "delta receptors, mouse brain membranes (Mus musculus)", "%", 186],
  ["CCN(CC)C(=O)c1ccc(C(=C2CCN(Cc3ccccn3)CC2)c2cccc(O)c2)cc1", "delta receptors, mouse brain membranes (Mus musculus)", "%", 138],
  ["CCN(CC)C(=O)c1ccc(C(=C2CCN(Cc3c[nH]cn3)CC2)c2cccc(O)c2)cc1", "delta receptors, mouse brain membranes (Mus musculus)", "%", 104]
]}
